- test_name: Microsomal stability, human microsomes
- Assay type: in vitro ADME
- measurement_parameters: human microsomes 0.3 mg/mL, 1 μM compound, 60 min at 37° C.
measured_quantity: Human (%), microsomal stability, percentage of compound remaining

* COc1cccc(CNC(=O)c2cc(C(=O)NCc3ccc(-c4nnn[nH]4)cc3)ncn2)c1 [Example 1040d] | 75
* C[C@H](NC(=O)c1cc(C(=O)NCc2ccc(F)cc2)ncn1)c1ccc(-c2nnn[nH]2)cc1 [Example 1007c] | 100
* COc1cccc(CNC(=O)c2cc(C(=O)N[C@H](C)c3ccc(-c4nnn[nH]4)cc3)ncn2)c1 (stereo in doubt) [Example 1006] | 93
* C[C@H](NC(=O)c1cc(C(=O)NCc2ccc(-c3nnn[nH]3)cc2)ncn1)c1ccccc1 [Example 1040b] | 96
* O=C(NCc1ccc(F)cc1)c1cc(C(=O)NCc2ccc(-c3nnn[nH]3)cc2)ncn1 [Example 1040e] | 98
